For each entry below, report its log10 of MIC value.
Tested on: Mycobacterium tuberculosis
Procedure details: Antitubercular activity against […] after 7 days by alamar blue assay
Assay type: functional
Condition context: 168 h
Note: values are log10 of MIC expressed in µM.

Incoming: Consider the compound C=C[C@@H](O)[C@@H](O)CNCCCCCCCC and give its measured log10 of MIC.
Outgoing: 2.97

Incoming: Request the reported log10 of MIC associated with C=C[C@H](O)[C@@H](O)CNC(c1ccccc1)c1ccccc1
Outgoing: 2.64

Incoming: log10 of MIC for NC(c1ccccc1)c1ccccc1 ?
Outgoing: 3.13

Incoming: Need log10 of MIC of OC[C@@H](O)[C@H](O)[C@H](O)CNC1CCCCCCCCCCC1 , thanks.
Outgoing: 2.20

Incoming: Value lookup for log10 of MIC; key = C=C[C@@H](O)[C@H](O)CNC1CCCCCCCCCCC1
Outgoing: 2.30

Incoming: What value of log10 of MIC has been recorded for this entry: CCCCCCCCCCCCCCCCN
Outgoing: 2.11

Incoming: # lookup: log10 of MIC of C=C[C@@H](O)[C@H](O)CNC(c1ccccc1)c1ccccc1
Outgoing: 3.20

====

Tested on: Mycobacterium tuberculosis
Procedure details: Antitubercular activity against […] after 7 days by alamar blue assay
Type: functional
Condition context: 168 h
Reported endpoint: MIC (µM)
Response body: numeric value in µM, unit text excluded.

Incoming: Look up MIC for this compound: C[C@H](O)[C@@H](O)[C@@H](O)[C@H](O)CNC1CCCCCCCCCCC1
Outgoing: 680

Incoming: Entry under review: C=C[C@@H](O)[C@@H](O)CNC(c1ccccc1)c1ccccc1 . Reported MIC?
Outgoing: 1600

Incoming: # lookup: MIC of CC[C@@H](CO)NCCN[C@@H](CC)CO
Outgoing: 39

Incoming: Report MIC for C=C[C@H](OC)[C@H](CNC(c1ccccc1)c1ccccc1)OC please.
Outgoing: 800

Incoming: Look up MIC for this compound: C=C[C@@H](O)[C@H](O)CNCCCCCCCCCCCCCCCC
Outgoing: 21

====

Consider the following compounds; for each one, report its MIC.
Test system: Mycobacterium tuberculosis
Procedure details: Antitubercular activity against […] after 7 days by alamar blue assay
Type: functional
Condition context: 168 h

Incoming: Need MIC of C=C[C@@H](O)[C@H](O)CNCCCCCCCC , thanks.
Outgoing: 680 µM

Incoming: Which MIC is listed for C[C@H](O)[C@@H](O)[C@@H](O)[C@H](O)CNC1CCCCCCC1 ?
Outgoing: > 500 µg/mL

Incoming: # MIC lookup, item C=C[C@@H](O)[C@H](O)CN(C)CCCCCCCCCCCCCCCC
Outgoing: 22 µM

Incoming: What measured MIC goes with C=C[C@H](O)[C@@H](O)CN ?
Outgoing: > 3500 µM

Incoming: Tell me the measured MIC of C=C[C@@H](O)[C@H](O)CNC12CC3CC(CC(C3)C1)C2 , please.
Outgoing: > 500 µg/mL

====

System: Mycobacterium tuberculosis
Procedure details: Antitubercular activity against […] after 7 days by alamar blue assay
Format: functional
Condition context: 168 h
Reported endpoint: MIC

Incoming: Requested field: MIC. Item: CCCCCCCCCCCCCCN [TETRADECYLAMINE]
Outgoing: 140 µM

Incoming: Consider the molecule C=C[C@@H](O)[C@H](O)CNC[C@@H](O)[C@H](O)C=C and give its measured MIC.
Outgoing: 2000 µM

Incoming: // query MIC value for entry O=C1OC[C@@H]2[C@H](O)[C@@H](O)CN12
Outgoing: > 3500 µM

Incoming: I'd like to know its MIC. The molecule in question is C=C[C@H](O)[C@@H](O)CNCCCCCCCC
Outgoing: 940 µM

Incoming: May I ask what MIC has been recorded for C=C[C@@H](O)[C@H](O)CN(CCCC)CCCC ?
Outgoing: > 500 µg/mL

Incoming: May I ask what MIC has been recorded for O=C1OC[C@H]2[C@@H](O)CCN12 ?
Outgoing: > 3500 µM

Incoming: Dear colleague, I am looking for the recorded MIC of the following molecule: OC[C@@H]1NC[C@H](O)[C@@H]1O
Outgoing: > 3500 µM

Incoming: Look up MIC: NC1CCCCCCCCCCC1
Outgoing: 680 µM

Incoming: Bench note: what MIC did C=C[C@@H](O)CCN show?
Outgoing: > 3500 µM

Incoming: Fill in: MIC of OC[C@@H]1NC[C@@H](O)[C@@H]1O is ___
Outgoing: > 3500 µM

Incoming: Param item = OC[C@@H]1NCC[C@@H]1O ; retrieve measured MIC.
Outgoing: > 3500 µM

Incoming: Requested read-out: MIC. Entry: C=C[C@@H](O)[C@H](O)CNCCCCCCCCCCCCCC
Outgoing: 45 µM

Incoming: # MIC lookup, item OC[C@@H](O)[C@H](O)[C@H](O)CNC1CCCCCCC1
Outgoing: > 500 µg/mL
